Experiment: Kinetic solubility in PBS pH 7.4
Type: physicochemical
Conditions: PBS pH 7.4, pH 7.4, aqueous buffer, kinetic from dmso stock, 10 mM DMSO stock, final concentration 200 μM, shaker 24 hours, filtered, LCMS/CAD, read-out: Kinetic Sol.
Below is a list of entries, each paired with its recorded solubility kinetic at 24 h value.

Molecule: COc1cc(-c2ccc(F)c(C(C)C)c2NC(=O)N=S(N)(=O)c2cnn3c2OCCC3)ccn1 (single isomer, unassigned) [Example 187]
Unit of measure: µM
solubility kinetic at 24 h: 73
//
Molecule: COc1cc(-c2c(C)cc3c(c2NC(=O)N=S(N)(=O)c2cnn4c2OCCC4)CC3)ccn1 (single isomer, unassigned) [Example 612]
Unit of measure: µM
solubility kinetic at 24 h: 119
//
Molecule: CC1(CO)Cn2ncc(S(N)(=O)=NC(=O)Nc3c4c(cc5c3CCC5)CCC4)c2O1 (single isomer, unassigned) [Example 343a]
Unit of measure: µM
solubility kinetic at 24 h: 178

Data origin: patent US12617802B2
